assay: qHTS screen for small molecules that inhibit ELG1-dependent DNA repair in human embryonic kidney (HEK293T) cells expressing luciferase-tagged ELG1; conditions: HEK293T ELG1-luciferase reporter, luminescence, 16 h, DNA damage induced by 5-fluorouridine; series mostly up to 46.1 µM; also: nearly all actives have a fitted effect of over 55% in size
About 7,700 (2.3%) of roughly 330,000 compounds were called active. Roughly 26% stayed inconclusive and do not appear here. Calls follow the shape of the dose curve; as a rule, active = well fitted inhibition curve with a large enough effect; inconclusive = small, poorly fitted or top-dose-only effect, or effect the other way; inactive = flat fitted curve, though single readings scatter. Shown is part of a subset that was picked to be rich in actives.
Classes used: active, inactive

molecule=O=Cc1c(Nc2ccccc2Cl)nc2ccccn2c1=O label_class=inactive
molecule=CCOC(=O)[C@H]1[C@H]2COc3ccc(Cl)cc3[C@@H]2N2C(=O)c3cc(C)ccc3NC(=O)[C@@]12C label_class=inactive
molecule=COc1ccc(Cl)cc1NC(=O)CN(C)C(=O)c1cc(-c2cccs2)nn1-c1ccccc1 label_class=inactive
molecule=Cc1ccc(Cn2cc(C(=O)NN)c(=O)c3ccc(F)cc32)cc1 label_class=inactive
molecule="CC(NC(=O)COC(=O)CCC(=O)c1ccc(Cl)cc1)c1ccccc1 (stereo unspecified)" label_class=inactive
molecule=COc1ccccc1N1CCN(S(=O)(=O)CCNC(=O)c2ccc(OC(C)C)cc2)CC1 label_class=active
molecule=CCOc1ccc(CC(=O)NCCS(=O)(=O)N2CCN(c3ccccc3)CC2)cc1 label_class=inactive
molecule=O=S(=O)(c1ccc(Cl)cc1)c1nc(-c2ccco2)oc1N1CCCCC1 label_class=inactive
molecule=Cc1cccc(NS(=O)(=O)c2ccc(C)c(C(=O)NCc3cccnc3)c2)c1 label_class=inactive
molecule=COc1cc(OC)cc(C(=O)NNC(=O)Cc2cccs2)c1 label_class=inactive
molecule=COc1ccc(CC(=O)Nc2c(C(N)=O)oc3ccccc23)cc1 label_class=inactive
molecule=Clc1ccc2nc(-c3ccccc3)nc(C(Cl)Cl)c2c1 label_class=active
molecule=CCN(Cc1ccccc1)C(=O)Cc1ccc(OC)c(S(=O)(=O)N2CCOCC2)c1 label_class=inactive
molecule=CCN(c1ccccc1)S(=O)(=O)c1cc(C(=O)NCc2ccccn2)ccc1C label_class=inactive
molecule=COc1cc(-c2nc(S(=O)(=O)c3ccc(Cl)cc3)c(N(C)C)o2)cc(OC)c1OC label_class=active
molecule=O=C(NCCS(=O)(=O)N1CCN(c2ccccc2F)CC1)c1ccc(Br)o1 label_class=inactive
molecule=NC(N)=Nc1nc(-c2ccccc2)c2cc(Cl)ccc2n1 label_class=inactive
molecule=CCCCNC(=O)c1cn(CC)c2cc(N3CCN(C(=O)c4ccco4)CC3)c(F)cc2c1=O label_class=active
molecule="CCOC(=O)C1=C(CCc2ccccc2)NC(=O)NC1c1ccc2ccccc2c1 (stereo unspecified)" label_class=inactive
molecule=CCCn1c(CCNc2nc(-c3ccc(OC)cc3)cs2)nc2ccccc21 label_class=inactive
molecule=O=C(OCC(=O)N1CCN(c2ccccc2)CC1)c1ccc([N+](=O)[O-])s1 label_class=inactive

###

assay: qHTS screen for small molecules that inhibit ELG1-dependent DNA repair in human embryonic kidney (HEK293T) cells expressing luciferase-tagged ELG1; conditions: HEK293T ELG1-luciferase reporter, luminescence, 16 h, DNA damage induced by 5-fluorouridine; series mostly up to 46.1 µM; also: nearly all actives have a fitted effect of over 55% in size
In all, about 330,000 compounds went through this assay and about 7,700 (2.3%) were called active. Another 26% or so got no clear call; they are omitted. Calls follow the shape of the dose curve; as a rule, active = well fitted inhibition curve with a large enough effect; inconclusive = small, poorly fitted or top-dose-only effect, or effect the other way; inactive = flat fitted curve, though single readings scatter. The sample holds actives, similar compounds and a random draw of the others, so the mix is not that of the screen.
Classes used: active, inactive

smiles_string=O=C(COC(=O)c1c2c(nc3ccccc13)CCCC2)c1ccc(Br)s1 label_class=inactive
smiles_string=COc1ccc(NS(=O)(=O)c2ccc(Oc3c(C#N)cccc3C#N)cc2)cc1 label_class=active
smiles_string=CCOc1ccc(S(=O)(=O)Nc2ccc(S(=O)(=O)Nc3cc(OC)ccc3OC)cc2)cc1 label_class=inactive
smiles_string=COc1ccccc1Oc1ccc(S(=O)(=O)Nc2cccnc2)cc1 label_class=inactive
smiles_string=O=C(Nc1cc(C(F)(F)F)ccc1Cl)c1cc(C2CC2)on1 label_class=inactive
smiles_string=O=C(COC(=O)c1ccncc1)Nc1ccc2c(c1)OCO2 label_class=inactive
smiles_string=Cc1nn(Cc2ccc(Cl)c(Cl)c2)c(C)c1NC(=O)c1cc(C2CC2)on1 label_class=active
smiles_string=CCOC(=O)CC1(NC(=O)c2cc(COc3cncc(Cl)c3)on2)CCCCC1 label_class=inactive
smiles_string=NS(=O)(=O)c1ccc(NC(=O)COC(=O)c2cc3ccccc3oc2=O)cc1 label_class=inactive
smiles_string=COc1cc(S(=O)(=O)N2CCN=C2c2ccccc2)ccc1Cl label_class=inactive
smiles_string=Cc1cc(C(=O)Nc2c(C)nn(Cc3ccccc3)c2C)on1 label_class=inactive

###

experiment: qHTS screen for small molecules that inhibit ELG1-dependent DNA repair in human embryonic kidney (HEK293T) cells expressing luciferase-tagged ELG1; details: HEK293T ELG1-luciferase reporter, luminescence, 16 h, DNA damage induced by 5-fluorouridine; series mostly up to 46.1 µM; also: nearly all actives have a fitted effect of over 55% in size; also: potency is read from the fitted curve at half-maximal effect
Among all 330,000 compounds or so, about 7,700 (2.3%) were called active. Roughly 26% stayed inconclusive and do not appear here. For the sample, actives were picked, then their nearest neighbours and some compounds at random.
Assay endpoint: Potency

smiles_string=CC(=O)c1ccc(S(=O)(=O)N2CCC3(CC2)OCCO3)cc1 meas_value=inactive
smiles_string=Cc1nc2ccccc2c(=O)n1-c1ccc(F)c(NC(=O)c2cccs2)c1 meas_value=inactive
smiles_string=C=CC[C@@H](CC(=O)N[C@H](CO)Cc1ccccc1)C(=O)N[C@@H](COC(=O)[C@@H](CC=C)Cc1ccc(F)cc1)Cc1c[nH]c2ccccc12 meas_value=inactive
smiles_string=CC(=O)c1ccc(S(=O)(=O)N2CCN(C(=O)/C=C/c3ccc4ccccc4n3)CC2)cc1 meas_value="20.6 µM (active)"
smiles_string=C=CCC[C@@H](Cc1ccc(F)cc1)C(=O)OC[C@@H](C)NC(=O)[C@H](CC=C)CC(=O)N(CCO)Cc1ccccc1 meas_value=inactive

###

test: qHTS screen for small molecules that inhibit ELG1-dependent DNA repair in human embryonic kidney (HEK293T) cells expressing luciferase-tagged ELG1; conditions: HEK293T ELG1-luciferase reporter, luminescence, 16 h, DNA damage induced by 5-fluorouridine; series mostly up to 46.1 µM; also: nearly all actives have a fitted effect of over 55% in size
About 7,700 (2.3%) of roughly 330,000 compounds were called active. About 26% were inconclusive and are not listed. Calls come from the whole dose curve; as a rule, active = well fitted inhibition curve with a large enough effect; inconclusive = small, poorly fitted or top-dose-only effect, or effect the other way; inactive = flat fitted curve, though single readings scatter. For the sample, actives were picked, then their nearest neighbours and some compounds at random.
Classes used: T = active, F = inactive

compound="COCCn1c(SCC(=O)Nc2cc(OC)ccc2OC)nc2c(c1=O)SC(C)C2 (configuration not stated)" label_class=F
compound=COc1ccc(NC(=O)NCCN2CCN(c3ccc(C)cc3)CC2)c(Cl)c1 label_class=F
compound=CCCNC(=O)CSc1nc(Cc2ccccc2)nc2ccccc12 label_class=F
compound=Cc1ccc(NC(=O)C2CCN(S(=O)(=O)c3ccc4c(c3)NC(=O)CO4)CC2)cc1C label_class=F
compound=C/C(=N/NC(=O)c1ccncc1)c1ccc2c(c1)OCO2 label_class=F
compound=O=C(NNC(=O)c1cccc(S(=O)(=O)Nc2ccc(Cl)cc2)c1)c1ccc(=O)[nH]c1 label_class=F
compound="COc1ccccc1NC(=O)C1=C(C)NC(=O)NC1c1ccc(C)s1 (configuration not stated)" label_class=F
compound=Cc1ccccc1CN1CCC(C(=O)Nc2ccc(Oc3cccnc3)cc2)CC1 label_class=F
compound="CCn1c(SCC(=O)Nc2ccccc2F)nc2c(c1=O)SC(C)C2 (configuration not stated)" label_class=F
compound="CCOC(=O)C1=C(C)Nc2nc3ccccc3n2C1c1cccs1 (configuration not stated)" label_class=F
compound="CC(/C=C/c1ccco1)=N/NC(=O)C1COc2ccccc2O1 (configuration not stated)" label_class=F
compound=O=C(COC(=O)c1ccc(O)cc1O)c1ccc2c(c1)OCCO2 label_class=F
compound=O=S(=O)(NCC1CN(S(=O)(=O)c2ccc3c(c2)OCCO3)C1)c1c(F)cccc1F label_class=F
compound=C=C(C)COc1ccc(-c2nc(N)ncc2-c2ccccc2OC)c(O)c1 label_class=F
compound="Cc1cc(OCC(=O)NCC(O)c2ccccc2)c2c(C)c(C)c(=O)oc2c1 (configuration not stated)" label_class=F
compound="CC(/C=C/c1ccccc1)=N\\NC(=O)C1CC1(C)c1ccccc1 (configuration not stated)" label_class=T
compound="O=C(N/N=C/C=C/c1ccccc1)C1CC1(c1ccccc1)c1ccccc1 (configuration not stated)" label_class=F
compound=O=C(Nc1nc(-c2ccc3c(c2)OCO3)cs1)c1ccncc1 label_class=T
compound="CCC(C)N(C(=O)CSc1ncnc2c1cnn2-c1ccccc1)C1CCS(=O)(=O)C1 (configuration not stated)" label_class=F
compound=C=C(C)COc1ccc(-c2ncncc2-c2ccc(OC)cc2)c(O)c1 label_class=T
compound="NC(=O)c1nsc(C(=O)N(CCCN2CCOCC2)C(C(=O)NC2CCCCC2)c2ccc(Cl)cc2)c1N (configuration not stated)" label_class=F
compound="COc1ccc(CN2C3CCCC2CC(NC(=O)c2cccc(F)c2)C3)cc1 (configuration not stated)" label_class=F

###

assay: qHTS screen for small molecules that inhibit ELG1-dependent DNA repair in human embryonic kidney (HEK293T) cells expressing luciferase-tagged ELG1; conditions: HEK293T ELG1-luciferase reporter, luminescence, 16 h, DNA damage induced by 5-fluorouridine; series mostly up to 46.1 µM; also: nearly all actives have a fitted effect of over 55% in size; also: potency is read from the fitted curve at half-maximal effect
About 7,700 (2.3%) of roughly 330,000 compounds were called active. Not shown: some 26% with an inconclusive outcome. This is one part of a sample in which actives are shown more often than they occur.
Assay endpoint: Potency

compound="O=C(O)C1CCCN(S(=O)(=O)c2cccc3cccnc23)C1 (stereo not given)" meas_value=inactive
compound="OC(COc1ccc(F)cc1Cl)CN1CCc2ccccc2C1 (stereo not given)" meas_value=inactive
compound="COc1cc(C2CC(=O)c3cnc(NC(C)=O)nc3C2)cc(OC)c1OC (stereo not given)" meas_value=inactive
compound=CCN(CC(=O)Nc1ccc(S(=O)(=O)N2CCCC2)cc1)CC(=O)Nc1cccc(OC)c1 meas_value=inactive
compound="COc1ccc(NC(=O)C2CCCN(S(=O)(=O)c3cccc4cccnc34)C2)cc1OC (stereo not given)" meas_value="20.6 µM (active)"
compound="COCCOC(=O)c1[nH]c2c(c1C)C(=O)CC(c1ccc(OC)cc1)C2 (stereo not given)" meas_value=inactive
compound="COc1ccccc1CNC(=O)C1CCCN(S(=O)(=O)c2cccc3cccnc23)C1 (stereo not given)" meas_value=inactive
compound="N#CC1=C(SCc2ccc(C#N)cc2)N=C(N)C(c2nc(-c3ccccc3)cs2)C12CCCCC2 (stereo not given)" meas_value=inactive
compound="CCCOC(=O)c1[nH]c2c(c1C)C(=O)CC(c1cc(OC)c(OC)c(OC)c1)C2 (stereo not given)" meas_value="5.17 µM (active)"
compound="N#CC1=C(SCc2ccccc2)NC(=O)C(C#N)C12CCCC2 (stereo not given)" meas_value="14.6 µM (active)"
